Assayed Target: mu opiate receptor (MOR) (Rattus norvegicus, UniProt P33535)
Construct: from tissue; host or cells: striatal tissue (membrane preparation)
Sequence (P33535 whole entry): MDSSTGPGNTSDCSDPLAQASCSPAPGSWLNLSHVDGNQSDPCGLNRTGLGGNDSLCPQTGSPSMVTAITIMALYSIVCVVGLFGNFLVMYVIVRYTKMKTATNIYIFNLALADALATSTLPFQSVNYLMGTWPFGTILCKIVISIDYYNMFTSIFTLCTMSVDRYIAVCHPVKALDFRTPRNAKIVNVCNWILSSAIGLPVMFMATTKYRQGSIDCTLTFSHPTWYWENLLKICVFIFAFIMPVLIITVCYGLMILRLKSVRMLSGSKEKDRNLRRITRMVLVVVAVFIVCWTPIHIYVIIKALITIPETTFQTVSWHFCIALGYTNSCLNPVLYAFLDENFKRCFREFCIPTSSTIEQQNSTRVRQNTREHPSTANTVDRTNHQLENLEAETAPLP
Assay Text: MOR agonist activity using [35S]GTPγS binding assay in striatal membranes
Format: biochemical
Run Parameters: 1 μM compound; striatal membranes; Series C-2
Quantity Measured: MOR agonist activity, [35S]GTPγS binding, FLNA-binding compound as agonist at 1 μM
Please provide the amount together with its unit, number first.

These solved cases illustrate the format of a correct answer.
Molecule	Test Value
C[C@@H](NC(=O)[C@@H](N)Cc1ccc(O)cc1)C(=O)NCC(=O)N(C)[C@@H](Cc1ccccc1)C(=O)NCCO [DAMGO, [D-Ala2, N-MePhe4, Gly-ol]-enkephalin, reference compound]	266.1%
CC(=O)c1ccc(S(=O)(=O)N2CC(CN(C)C)OC23CCN(C)CC3)cc1 (stereo not shown) [Compound C0108M]	258.5%
CS(=O)(=O)c1ccc(S(=O)(=O)N2CCOC23CCNCC3)cc1 [Compound C0116M]	302.8%
CCCCN1CCC2(CC1)OCCN2S(=O)(=O)c1ccc(C(C)=O)cc1 [Compound C0101M]	274.3%
C=CCN1CCC2(CC1)OCCN2S(=O)(=O)c1ccc(C(C)=O)cc1 [Compound C0096M]	328.9%
O=C1CN(Cc2ccccc2)C2(CCN(C3CCCCC3)CC2)N1 [C0137M(P7)]	193.8%

MOR agonist activity, [35S]GTPγS binding, FLNA-binding compound as agonist at 1 μM lookup needed for CCOC(=O)CN1CCC2(CC1)OCCN2S(=O)(=O)c1ccc(C(C)=O)cc1 [Compound C0099M] , thanks. 195.7%

Same read-out for CC(=O)c1ccc(S(=O)(=O)N2CCC3(CC2)NC(=O)CO3)cc1 [Compound C0087M] ? 329.6%

Moving on to the next molecule: CN1CCC2(CC1)NCC(=O)N2Cc1ccccc1 [Compound C0105M] 220.3%

Queued: O=S(=O)(c1ccccc1Oc1ccccc1)N1CCC2(CC1)NCCO2 [Compound C0149M-2] 406.7%

Also check CC(=O)c1ccc(S(=O)(=O)N2CCOC23CCN(C)CC3)cc1 [Compound C0093M] 211.8%

How about this molecule: Cc1ccc(S(=O)(=O)N2CCOC23CCN(CC2CC2)CC3)cc1 [Compound C0134M] 207.3%

---

# MOR agonist activity, [35S]GTPγS binding, FLNA-binding compound as agonist at 0.1 μM values compiled below
Assayed Target: mu opiate receptor (MOR) (Rattus norvegicus)
Construct: from tissue; host or cells: striatal tissue (membrane preparation)
Assay Text: MOR agonist activity using [35S]GTPγS binding assay in striatal membranes
Type: biochemical
Run Parameters: 0.1 μM compound; striatal membranes; Series C-2
# number then unit; no other words

Below are worked cases with known answers.
Compound	Test Value
CC(=O)c1ccc(S(=O)(=O)N2CCOC23CCN(C)CC3)cc1 [Compound C0093M]	140.0%
O=[N+]([O-])c1ccc(S(=O)(=O)N2CCC3(CC2)NCCO3)cc1	145.8%
O=S(=O)(c1ccccc1Oc1ccccc1)N1CCC2(CC1)NCCO2 [Compound C0149M-2]	209.8%
COc1ccc(S(=O)(=O)N2CCC3(CC2)NCCC(=O)N3)cc1 [Compound C0142M]	143.7%
CC(=O)c1ccc(S(=O)(=O)N2CCOC23CCN(CC2CC2)CC3)cc1 [Compound C0095M]	189.1%

Look up MOR agonist activity, [35S]GTPγS binding, FLNA-binding compound as agonist at 0.1 μM with mu opiate receptor (MOR) (Rattus norvegicus) for this compound: CC(=O)c1ccc(S(=O)(=O)N2CC(=O)NC23CCNCC3)cc1 [Compound C0086M] 206.8%

Param item: `CC(=O)N1CCSC12CCN(S(=O)(=O)c1ccc([N+](=O)[O-])cc1)CC2` 110.3%

---

Assayed Target: mu opiate receptor (MOR) (Rattus norvegicus)
Construct: from tissue; host or cells: striatal tissue (membrane preparation)
Assay Text: MOR agonist activity using [35S]GTPγS binding assay in striatal membranes
Format: biochemical
Run Parameters: 1 μM compound + 1 μM β-FNA (MOR antagonist); striatal membranes
Doc: threshold 80% (exclusive). Items with MOR agonist activity, [35S]GTPγS binding, 1 μM + BFNA beneath it return Met; others return Not met.

Completed entries (count: 7):
Molecule	Assayed Target	Assigned Class
CC(=O)c1ccc(S(=O)(=O)N2CCC3(CC2)NC(=O)CO3)cc1 [Compound C0087M]	mu opiate receptor (MOR) (Rattus norvegicus)	Not met
CCc1ccc(S(=O)(=O)N2CCOC23CCN(CC2CC2)CC3)cc1 [Compound C0135M]	mu opiate receptor (MOR) (Rattus norvegicus)	Not met
Cc1ccc(S(=O)(=O)N2CCOC23CCN(CC2CC2)CC3)cc1 [Compound C0134M]	mu opiate receptor (MOR) (Rattus norvegicus)	Met
COc1ccc(S(=O)(=O)N2CCC3(CC2)NCCO3)cc1	mu opiate receptor (MOR) (Rattus norvegicus)	Met
CC(=O)c1ccc(S(=O)(=O)N2CCOC23CCN(CC(=O)O)CC3)cc1 [Compound C0100M]	mu opiate receptor (MOR) (Rattus norvegicus)	Not met
O=C1CN(C2CCc3ccccc3C2)C2(CCN(S(=O)(=O)c3ccccc3)CC2)N1 (stereo not drawn) [C0136M (P5)]	mu opiate receptor (MOR) (Rattus norvegicus)	Met
O=[N+]([O-])c1ccc(S(=O)(=O)N2CCC3(CC2)NCCO3)cc1	mu opiate receptor (MOR) (Rattus norvegicus)	Not met

Here is the next item to consider.
Regarding `CC(=O)c1ccc(S(=O)(=O)N2CCC3(CC2)NCCS3)cc1` , kindly confirm whether its MOR agonist activity, [35S]GTPγS binding, 1 μM + BFNA is beneath 80%. Not met

---

Assayed Target: mu opiate receptor (MOR) (Rattus norvegicus, UniProt P33535)
Construct: from tissue; host or cells: striatal tissue (membrane preparation)
Assay Text: MOR agonist activity using [35S]GTPγS binding assay in striatal membranes
Type: biochemical
Run Parameters: 0.1 μM compound; striatal membranes; Series C-2
Label Y when MOR agonist activity, [35S]GTPγS binding, FLNA-binding compound as agonist at 0.1 μM is strictly below 200%; otherwise label N.

Compound	Assayed Target	Assigned Class
O=C1CN(Cc2ccccc2)C2(CCN(CC3CC3)CC2)N1 [Compound C0125M]	mu opiate receptor (MOR) (Rattus norvegicus, UniProt P33535)	Y

Check if MOR agonist activity, [35S]GTPγS binding, FLNA-binding compound as agonist at 0.1 μM falls below 200% for O=C1CNC2(CCN(CC3CC3)CC2)N1Cc1ccccc1 [Compound C0124M] . N

How about this compound: CS(=O)(=O)c1ccc(S(=O)(=O)N2CCOC23CCN(CC2CC2)CC3)cc1 [Compound C0126M] Y

Next compound: COc1ccc(NC(=O)N2CCC3(CC2)NCCO3)cc1 [Compound C0151M-2] N

And what about the compound CC(=O)c1ccc(S(=O)(=O)N2CC(CN(C)C)OC23CCNCC3)cc1 (stereo not drawn) [Compound C0118M] ? Y

Note, next up: `COc1ccc(S(=O)(=O)N2CCOC23CCN(C(=O)OC(C)(C)C)CC3)cc1` Y

# repeat for CC(=O)c1ccc(S(=O)(=O)N2CCOC23CCN(CC(=O)O)CC3)cc1 [Compound C0100M] Y

Please do the same for COc1ccc(S(=O)(=O)N2CCC3(NCCO3)C3CCCCC32)cc1 (stereo not drawn) [Compound C0144M-2] as well. Y

Let us now turn to O=C1CN(Cc2ccccc2)C2(CCNCC2)N1 [Compound C0115M] Y

Also COc1ccc(S(=O)(=O)N2CCOC23CCN(CC2CC2)CC3)cc1 [Compound C0090M] ? N

Another compound: `CC(=O)c1ccc(S(=O)(=O)N2CCC3(CC2)OCCN3S(C)(=O)=O)cc1` Y

---

Assayed Target: mu opiate receptor (MOR) (Rattus norvegicus)
Construct: from tissue; host or cells: striatal tissue (membrane preparation)
Assay Text: MOR agonist activity using [35S]GTPγS binding assay in striatal membranes
Type: biochemical
Run Parameters: 0.1 μM compound; striatal membranes; Series C-2
Reported MOR agonist activity, [35S]GTPγS binding, FLNA-binding compound as agonist at 0.1 μM is given for each of the following molecules.
Your answer is read as %, so omit the unit and give the number.

Molecule	Test Value
CCOC(=O)CN1CCC2(CC1)OCCN2S(=O)(=O)c1ccc(C(C)=O)cc1 [Compound C0099M]	157.2

MOR agonist activity, [35S]GTPγS binding, FLNA-binding compound as agonist at 0.1 μM for CCN1CCC2(CC1)OCCN2S(=O)(=O)c1ccc(OC)cc1 [Compound C0089M] ? 234.5

Try the molecule CCCCN1CCC2(CC1)OCCN2S(=O)(=O)c1ccc(C(C)=O)cc1 [Compound C0101M] 138.2

---

Assayed Target: mu opiate receptor (MOR) (Rattus norvegicus, UniProt P33535)
Construct: from tissue; host or cells: striatal tissue (membrane preparation)
Assay Text: MOR agonist activity using [35S]GTPγS binding assay in striatal membranes
Type: biochemical
Run Parameters: 0.1 μM compound; striatal membranes; Series C-2
Quantity Measured: MOR agonist activity, [35S]GTPγS binding, FLNA-binding compound as agonist at 0.1 μM
Respond with a number, then the unit of measure.

Compound	Test Value
O=C1CN(Cc2ccccc2)C2(CCN(C3CCCCC3)CC2)N1 [C0137M(P7)]	180.8%
CC(=O)c1ccc(S(=O)(=O)N2C(Cc3c[nH]cn3)C(=O)NC23CCNCC3)cc1 (centres unmarked) [Compound C0119M]	105.7%

// returns reported MOR agonist activity, [35S]GTPγS binding, FLNA-binding compound as agonist at 0.1 μM for input O=C1CN(C2CCc3ccccc3C2)C2(CCN(S(=O)(=O)c3ccccc3)CC2)N1 (centres unmarked) [C0136M (P5)] 176.8%

Would you kindly repeat that for CCN1CCC2(CC1)OCCN2S(=O)(=O)c1ccc(C(C)=O)cc1 [Compound C0094M] ? 172.5%

Follow-up item: CS(=O)(=O)c1ccc(S(=O)(=O)N2CCOC23CCNCC3)cc1 [Compound C0116M] 258.4%

Would you mind doing COc1ccc(S(=O)(=O)N2CCOC23CCNCC3)cc1 [Compound C0027] as well? 233.2%

What about C[C@@H](NC(=O)[C@@H](N)Cc1ccc(O)cc1)C(=O)NCC(=O)N(C)[C@@H](Cc1ccccc1)C(=O)NCCO [DAMGO, [D-Ala2, N-MePhe4, Gly-ol]-enkephalin, reference compound] ? 168.5%

Now the compound CC(=O)c1ccc(S(=O)(=O)N2CC(CN(C)C)OC23CCN(CC2CC2)CC3)cc1 (centres unmarked) [Compound C0128M] 197.8%

Do the same for CC(=O)c1ccc(S(=O)(=O)N2CCOC23CCNCC3)cc1 [Compound C0046] please 286.2%

For COc1ccc(S(=O)(=O)N2CCOC23CCN(C)CC3)cc1 [Compound C0088M] then? 276.3%

Would you mind doing CC(=O)c1ccc(S(=O)(=O)N2CC(CN(C)C)OC23CCN(C)CC3)cc1 (centres unmarked) [Compound C0108M] as well? 205.6%
